Measured Activity of individual entries
Assay: Antioxidant activity assessed as reduction in beta-carotene/linoleic acid bleaching activity at 1 mg/ml after 2 hrs by spectrophotometric method (reference value: 1 to 8%)
Type: functional
Set-up: scale not given: the % may be the effect or the level left
Quick reminder: number only, in %, skip the unit.

{"Substance Smiles": "CC(C)[C@@H]1CC[C@@H](C)C[C@@]12N(C)C(=O)[C@@H]1[C@H]3C(=O)N(C)C(=O)[C@H]3ON12", "Unit Of Measurement": "%", "Activity": 47.7}
{"Substance Smiles": "CC(C)[C@@H]1CC[C@@H](C)C[C@@]12N(C)C(=O)[C@@H]1[C@H]3C(=O)NC(=O)[C@H]3ON12", "Unit Of Measurement": "%", "Activity": 35.6}
{"Substance Smiles": "Cc1cccc(N2C(=O)[C@H]3[C@H](ON4[C@@H]3C(=O)N(C)[C@@]43C[C@H](C)CC[C@H]3C(C)C)C2=O)c1", "Unit Of Measurement": "%", "Activity": 39}

For reference, reported Activity for `COc1ccc(N2C(=O)[C@H]3[C@H](ON4[C@@H]3C(=O)N(C)[C@@]43C[C@H](C)CC[C@H]3C(C)C)C2=O)cc1` stands at 50

For reference, reported Activity for `CC(C)[C@@H]1CC[C@@H](C)C[C@@]12N(C)C(=O)[C@@H]1[C@H]3C(=O)N(c4ccc(Cl)cc4)C(=O)[C@H]3ON12` stands at 53.7

###

Assay: Antioxidant activity assessed as ABTS radical scavenging activity at 2.5 mg/ml incubated for 2 hrs in dark by spectrophotometric analysis (reference value: 1 to 9%)
Format: functional
Experimental Endpoint: Activity (%)
Quick reminder: number only, in %, skip the unit.

The following compounds have reported results that may help.
{"Compound": "CC(C)[C@@H]1CC[C@@H](C)C[C@@]12N(C)C(=O)[C@@H]1[C@H]3C(=O)N(c4ccccc4)C(=O)[C@H]3ON12", "Unit Of Measurement": "%", "Number": 58.6}
{"Compound": "Cc1c(C)c2c(c(C)c1O)CCC(C)(C(=O)O)O2 (centres undefined)", "Unit Of Measurement": "%", "Number": 90.8}
{"Compound": "CC(C)[C@@H]1CC[C@@H](C)C[C@@]12N(C)C(=O)[C@@H]1[C@H]3C(=O)N(c4ccc(Cl)cc4)C(=O)[C@H]3ON12", "Unit Of Measurement": "%", "Number": 60.1}

For reference, reported Activity for `Cc1ccc(N2C(=O)[C@H]3[C@H](ON4[C@@H]3C(=O)N(C)[C@@]43C[C@H](C)CC[C@H]3C(C)C)C2=O)c(C)c1` stands at 82.6

For reference, reported Activity for `CC(C)[C@@H]1CC[C@@H](C)C[C@@]12N(C)C(=O)[C@@H]1[C@H]3C(=O)N(c4ccc5ccccc5c4)C(=O)[C@H]3ON12` stands at 47.9

For reference, reported Activity for `Cc1cccc(N2C(=O)[C@H]3[C@H](ON4[C@@H]3C(=O)N(C)[C@@]43C[C@H](C)CC[C@H]3C(C)C)C2=O)c1` stands at 47.7

For reference, reported Activity for `CC(C)[C@@H]1CC[C@@H](C)C[C@@]12N(C)C(=O)[C@@H]1[C@H]3C(=O)N(C)C(=O)[C@H]3ON12` stands at 70.3

For reference, reported Activity for `COc1ccc(N2C(=O)[C@H]3[C@H](ON4[C@@H]3C(=O)N(C)[C@@]43C[C@H](C)CC[C@H]3C(C)C)C2=O)cc1` stands at 71.5

For reference, reported Activity for `CC(C)[C@@H]1CC[C@@H](C)C[C@@]12N(C)C(=O)[C@@H]1[C@H]3C(=O)NC(=O)[C@H]3ON12` stands at 70

###

Test: Antioxidant activity assessed as DPPH free radical scavenging activity at 3 mg/ml incubated for 20 mins in dark (reference value: 1 to 9%)
Assay type: functional
Experimental Endpoint: Activity

{"Substance Smiles": "COc1ccc(N2C(=O)[C@H]3[C@H](ON4[C@@H]3C(=O)N(C)[C@@]43C[C@H](C)CC[C@H]3C(C)C)C2=O)cc1", "Activity": "68.2%"}
{"Substance Smiles": "Cc1ccc(N2C(=O)[C@H]3[C@H](ON4[C@@H]3C(=O)N(C)[C@@]43C[C@H](C)CC[C@H]3C(C)C)C2=O)c(C)c1", "Activity": "73.2 to 89.3%"}

Now look at this entry.
For reference, reported Activity for `CC(C)[C@@H]1CC[C@@H](C)C[C@@]12N(C)C(=O)[C@@H]1[C@H]3C(=O)N(c4ccc(Cl)cc4)C(=O)[C@H]3ON12` stands at 47.2 to 63.9%
